Test system: wheat germ agglutinin (Triticum aestivum), Alexa647-labelled
Measurement Description: wheat germ agglutinin binders on compound microarrays, profiling panel, artefact control for SMM control-protein annotation, biochemical, small-molecule microarray, 635/667 nm fluorescence (AID 1140);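 further: score merges 667 nm feature emission with signal to noise over triplicate slides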
Test Context: WGA-A647 binding, 635 nm fluorescence, higher = more signal
In this section, each of the compounds is paired with its reported composite z-score.
Reported Property: composite z-score

* CN1C(=O)C2C=CC(C(O)c3ccc(I)cc3)N(N3CCCCC3)C2C1=O (stereo not drawn) | 1.2
* C=CCC(OC(C)=O)[C@@H]1[C@@H](N(Cc2cccc3ccccc23)C(=O)c2ccc(-c3ccccc3)cc2)c2cc(OCCCO)ccc2N1C(=O)Cc1ccc(OC)cc1 (stereo partly drawn) | 0.281
* COc1ccc([C@H]2C[C@H]3C(Br)=C[C@@H]2C(=O)[C@]32CO2)cc1 | -0.138
* C[N+](C)(C)CCCCNC(=O)[C@H]1C[C@H]2C(=O)N[C@@H](Cc3ccccc3)C(=O)N2[C@H]1c1ccc(O)cc1 | 0.496
* CC(C)C[C@@H]1NC(=O)[C@H]2C[C@@H](C(=O)NCCCCCCN)[C@@H](c3ccc(O)cc3)N2C1=O | 0.0592
* CN1C(=O)C2C=CC(C(O)c3ccccc3)N(Nc3ccccc3)C2C1=O (stereo not drawn) | 0.537
* CN(C)C(=O)[C@@]1(Cc2ccccc2CN=[N+]=[N-])N=C(c2ccc(OCCCO)cc2)O[C@H]1c1ccccc1 | 0.751
* O=C1C2C=CC(C(O)c3c(F)cccc3Cl)N(Nc3ccccc3)C2C(=O)N1c1ccccc1 (stereo not drawn) | 0.816

###

Listed next: entries and their corresponding composite z-score.
Test system: XIP peptide (Xip251-270) binding
Measurement Description: small-molecule binders of XIP peptide, primary screen, biochemical, small-molecule microarray, fluorescence 635/667 nm, 0.1 µg/mL protein (AID 1182)
Test Context: fluorescent protein binding, 635 nm, higher = more signal, called active from +8 up or from −8 down
Activity calls are given as the source filed them.
Reported Property: composite z-score

- C=CC[C@@]1(C(N)=O)N=C(c2ccc(OCCCO)cc2)O[C@@H]1c1ccccc1CN=[N+]=[N-]: 1.06 (inactive)
- C=CCOC(=O)[C@H]1[C@@H]2C(=O)O[C@@H](c3ccccc3)[C@@H](c3ccccc3)N2[C@@H](c2ccc(OCCOC(=O)[C@H]3C[C@H]4C(=O)N5CCC[C@H]5C(=O)N4[C@H]3c3ccc(O)cc3)cc2)[C@]12C(=O)Nc1ccccc12: 0.0734 (inactive)
- COCCOC(=O)N1C(=O)[C@@]2(c3cc(C#CCNC(N)=O)ccc31)[C@H](C(=O)NC[C@H](O)c1ccccc1)[C@H]1C(=O)O[C@H](c3ccccc3)[C@H](c3ccccc3)N1[C@@H]2c1ccccc1OCCO: 0.0808 (inactive)
- Cc1ccc(S[C@]2(C(=O)NC3CC3)CC(=O)N(C3Cc4ccccc4C3)[C@@H]2c2ccc(CO)cc2)cc1: 0.136 (inactive)
- COCCOC(=O)N1C(=O)[C@@]2(c3cc(C#CCCO)ccc31)[C@H](c1ccc(OCCO)cc1)N1[C@H](c3ccccc3)[C@H](c3ccccc3)OC(=O)[C@H]1[C@@H]2C(=O)N1CCN(c2ncccn2)CC1: -0.112 (inactive)

###

Study Target: E3 ubiquitin-protein ligase XIAP (Homo sapiens)
Measurement Description: XIAP binders, primary screen, biophysical, small-molecule microarray, fluorescence 635 nm (AID 1181);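 further: score merges 667 nm emission and signal to noise over triplicate slides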
Test Context: small-molecule microarray binding, higher = more signal
composite z-score below -0.05 gives False; composite z-score at or above it gives True.

• [N-]=[N+]=Nc1ccccc1[C@H]1OC(c2ccc(OCCCO)cc2)=N[C@@]1(Cc1ccccc1)C(=O)O = True
• C=CCOC(=O)[C@H]1[C@@H]2C(=O)O[C@@H](c3ccccc3)[C@@H](c3ccccc3)N2[C@@H](c2ccc(OCCOC(=O)[C@@H]3C[C@@H]4C(=O)N5CCC[C@H]5C(=O)N4[C@@H]3c3cccc(OCCO)c3)cc2)[C@]12C(=O)Nc1ccccc12 = False
• COCCOC(=O)N1C(=O)[C@@]2(c3ccccc31)[C@H](c1ccccc1OCCO)N1[C@H](c3ccccc3)[C@H](c3ccccc3)OC(=O)[C@H]1[C@@H]2C(=O)Nc1nc2ccccc2s1 = True
• C=C(COC)/C(=C/C[C@H](OC(=O)c1ccncc1)c1ccc(OCCO)cc1)c1cnc2ccccc2c1 = False
• C=CCN1C(=O)[C@@]2(O[C@@H](CCO)[C@H]([Si](C)(C)c3ccc(OC)cc3)[C@H]2C)c2cc(NC(=O)c3ccc(OC)cc3)ccc21 = False
• [N-]=[N+]=Nc1ccccc1C[C@]1(C(=O)NCC(O)CO)N=C(c2ccc(OCCCO)cc2)O[C@H]1c1ccccc1N=[N+]=[N-] (stereo partly drawn) = True
• CCOC(=O)C[C@H]1[C@H](OC(=O)c2cc3ccccc3oc2=O)[C@@H](NC(=O)C2CCCCC2)c2cc(OCCCO)ccc2N1C(=O)c1ccccc1 = False
• CN(C)C(=O)[C@]1(Cc2ccccc2N=[N+]=[N-])N=C(c2ccc(OCCCO)cc2)O[C@@H]1c1ccccc1 = False
• COc1ccc(C(=O)Nc2ccc(CN3C(=O)[C@@]4(O[C@@H](CC(=O)N5CCC[C@H]5CO)[C@H]([Si](C)(C)c5ccc(OC)cc5)[C@H]4C)c4ccccc43)cc2)cc1 = True
• CCCCC=C[C@@H](NC(=O)Oc1cccc(C(F)(F)F)c1)c1ccccc1 = True
• CC(C)[C@@H](CO)NC(=O)[C@H]1[C@@H](c2ccccc2)N(c2ccccc2)O[C@@H]1C = False
• C=CCC(OC(C)=O)[C@@H]1[C@@H](N(Cc2ccc(-c3ccccc3)cc2)C(=O)Cc2ccc(F)cc2)c2cc(OCCCO)ccc2N1C(=O)c1ccc(-c2ccccc2)cc1 (stereo partly drawn) = False
